Target: recombinant human MAO-B (monoamine oxidase-B) (Homo sapiens)
Construct: purchased Sigma-Aldrich
Sequence (P27338 1-520): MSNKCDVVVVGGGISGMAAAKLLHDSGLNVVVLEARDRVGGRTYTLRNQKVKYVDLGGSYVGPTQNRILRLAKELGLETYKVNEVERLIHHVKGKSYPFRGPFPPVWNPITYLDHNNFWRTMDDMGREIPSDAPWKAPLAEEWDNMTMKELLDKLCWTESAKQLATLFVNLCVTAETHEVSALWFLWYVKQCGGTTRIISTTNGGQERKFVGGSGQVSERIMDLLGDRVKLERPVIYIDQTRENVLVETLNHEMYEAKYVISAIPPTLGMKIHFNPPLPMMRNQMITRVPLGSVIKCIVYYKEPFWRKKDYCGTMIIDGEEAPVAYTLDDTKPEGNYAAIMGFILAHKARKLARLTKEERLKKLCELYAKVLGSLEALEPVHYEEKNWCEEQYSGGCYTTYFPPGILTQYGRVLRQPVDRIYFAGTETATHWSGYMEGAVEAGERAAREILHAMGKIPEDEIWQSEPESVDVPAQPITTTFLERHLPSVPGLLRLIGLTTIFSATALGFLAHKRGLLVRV
Experiment: Activity evaluation on recombinant human MAO-B (Amplex Red/HRP-coupled assay, 1 mM benzylamine substrate)
Format: biochemical
Details: 1 mM benzylamine, read-out: Inhibitory Activity (IC50, nM) MAO-B
Where a name gives a salt, the structure may show the parent alone.
measured.attribute: IC50

Which measured IC50 value corresponds to Cc1cc(-c2ccc(N3CCNCC3)cc2)sc1Cn1cnn(CC(CN)=C(F)F)c1=O [Example 155, Ditrifluoroacetate] ? > 100000 nM

Which measured IC50 value corresponds to Cc1cc(-c2ccc(N3CCNCC3)cc2)cnc1-n1cnn(CC(CN)=C(F)F)c1=O [Example 69, Ditrifluoroacetate] ? > 100000 nM

Which measured IC50 value corresponds to NCC(Cn1ncn(-c2cnc(-c3ccc(N4CCNCC4)cc3)cn2)c1=O)=C(F)F [Example 90, Ditrifluoroacetate] ? > 100000 nM

Which measured IC50 value corresponds to NCC(Cn1ncn(-c2cc(-c3ccc(N4CCNCC4)cc3)ccn2)c1=O)=C(F)F [Example 55, Ditrifluoroacetate] ? > 100000 nM

Which measured IC50 value corresponds to CS(=O)(=O)c1ccc(-c2cccc(-n3cnn(CC(CN)=C(F)F)c3=O)c2)cc1 [Example 17, Trifluoroacetate] ? > 10000 nM

Which measured IC50 value corresponds to CCn1cc(-c2cccc(-n3cnn(CC(CN)=C(F)F)c3=O)c2)cn1 [Example 23, Trifluoroacetate] ? > 100000 nM

###

target: recombinant human MAO-B (monoamine oxidase-B) (Homo sapiens, UniProt P27338); construct: purchased Sigma-Aldrich; assay: Activity evaluation on recombinant human MAO-B (Amplex Red/HRP-coupled assay, 1 mM benzylamine substrate); type: biochemical; details: 1 mM benzylamine, read-out: Inhibitory Activity (IC50, nM) MAO-B
Structures can show the parent of a compound that is named as a salt.
measured.attribute: IC50

Which measured IC50 value corresponds to NCC(Cn1ncn(Cc2ccc(-c3ccc(N4CCNCC4)nc3)s2)c1=O)=C(F)F [Example 114, Ditrifluoroacetate] ? > 100000 nM

Which measured IC50 value corresponds to Cc1cc(Br)ncc1-n1cnn(CC(CN)=C(F)F)c1=O [Example 12, Trifluoroacetate] ? > 10000 nM

Which measured IC50 value corresponds to NCC(Cn1ncn(Cc2ccc(C#Cc3cnc4c(c3)NCCO4)s2)c1=O)=C(F)F [Example 166, Ditrifluoroacetate] ? > 10000 nM

Which measured IC50 value corresponds to CCOc1ncc(-c2ccc(Cn3cnn(CC(CN)=C(F)F)c3=O)s2)cn1 [Example 117, Trifluoroacetate] ? > 100000 nM

Which measured IC50 value corresponds to CS(=O)(=O)c1ccc(-c2cccc(-n3cnn(CC(CN)=C(F)F)c3=O)n2)cc1 [Example 46, Trifluoroacetate] ? > 100000 nM

Which measured IC50 value corresponds to NCC(Cn1ncn(-c2cccc(Br)c2)c1=O)=C(F)F [Example 2, Trifluoroacetate] ? > 100000 nM

Which measured IC50 value corresponds to CCn1cc(-c2cnc(-n3cnn(CC(CN)=C(F)F)c3=O)c(C)c2)cn1 [Example 75, Trifluoroacetate] ? > 100000 nM

Which measured IC50 value corresponds to NCC(Cn1ncn(Cc2ccc(-c3cc(F)c4c(c3)CC(=O)N4)s2)c1=O)=C(F)F [Example 130, Trifluoroacetate] ? > 100000 nM

###

biological target: recombinant human MAO-B (monoamine oxidase-B) (Homo sapiens, UniProt P27338); construct: purchased Sigma-Aldrich; experiment: Activity evaluation on recombinant human MAO-B (Amplex Red/HRP-coupled assay, 1 mM benzylamine substrate); type: biochemical; details: 1 mM benzylamine, read-out: Inhibitory Activity (IC50, nM) MAO-B
Structures can show the parent of a compound that is named as a salt.
measured.attribute: IC50

Which measured IC50 value corresponds to Cc1cc(-c2ccc(N(C)C)nc2)cnc1-n1cnn(CC(CN)=C(F)F)c1=O [Example 71, Trifluoroacetate] ? > 100000 nM

Which measured IC50 value corresponds to NCC(Cn1ncn(Cc2ccc(-c3cnc4c(c3)CCCN4)s2)c1=O)=C(F)F [Example 145, Ditrifluoroacetate] ? > 100000 nM

Which measured IC50 value corresponds to NCC(Cn1ncn(-c2cccc(-c3ccc(N4CCNCC4)cc3)n2)c1=O)=C(F)F [Example 47, Ditrifluoroacetate] ? > 100000 nM

Which measured IC50 value corresponds to CC(=O)N1CCN(c2ccc(-c3ccc(Cn4cnn(CC(CN)=C(F)F)c4=O)s3)cc2)CC1 [Example 108, Trifluoroacetate] ? > 10000 nM

###

Task for the reader: assign each of the following compounds its reported IC50.
target: recombinant human MAO-B (monoamine oxidase-B) (Homo sapiens); construct: purchased Sigma-Aldrich; test: Activity evaluation on recombinant human MAO-B (Amplex Red/HRP-coupled assay, 1 mM benzylamine substrate); type: biochemical; details: 1 mM benzylamine, read-out: Inhibitory Activity (IC50, nM) MAO-B
Where a name gives a salt, the structure may show the parent alone.

Which measured IC50 value corresponds to NCC(Cn1ncn(Cc2ccc(-c3ccn4ncnc4c3)s2)c1=O)=C(F)F [Example 128, Trifluoroacetate] ? > 100000 nM

Which measured IC50 value corresponds to Cc1cc(-c2ccc(N(C)C)nc2)sc1Cn1cnn(CC(CN)=C(F)F)c1=O [Example 157, Trifluoroacetate] ? > 100000 nM

Which measured IC50 value corresponds to CCn1cc(-c2cccc(-n3cnn(CC(CN)=C(F)F)c3=O)n2)cn1 [Example 53, Trifluoroacetate] ? > 100000 nM

###

target: recombinant human MAO-B (monoamine oxidase-B) (Homo sapiens); construct: purchased Sigma-Aldrich; assay: Activity evaluation on recombinant human MAO-B (Amplex Red/HRP-coupled assay, 1 mM benzylamine substrate); type: biochemical; settings: 1 mM benzylamine substrate, read-out: Inhibitory Activity (IC50, nM) MAO-B
Where a name gives a salt, the structure may show the parent alone.
Task for the reader: assign each of the following compounds its reported IC50.

Which measured IC50 value corresponds to CCn1cc(-c2cccc(-n3cnn(CC(CN)=C(F)F)c3=O)n2)ccc1=O [Example 218, Trifluoroacetate] ? > 100000 nM

Which measured IC50 value corresponds to CN(C)C(=O)c1cccc(-c2ccc(Cn3cnn(CC(CN)=C(F)F)c3=O)s2)c1 [Example 181, trifluoroacetate] ? > 100000 nM

Which measured IC50 value corresponds to CS(=O)(=O)c1ccc(-c2ccc3sc(Cn4cnn(CC(CN)=C(F)F)c4=O)cc3c2)cc1 [Example 205, Trifluoroacetate] ? > 100000 nM

###

target: recombinant human MAO-B (monoamine oxidase-B) (Homo sapiens, UniProt P27338); construct: purchased Sigma-Aldrich; test: Activity evaluation on recombinant human MAO-B (Amplex Red/HRP-coupled assay, 1 mM benzylamine substrate); assay type: biochemical; details: 1 mM benzylamine, read-out: Inhibitory Activity (IC50, nM) MAO-B
Where a name gives a salt, the structure may show the parent alone.
measured.attribute: IC50 (nM)
Just the number in nM, nothing appended.

Which measured IC50 value corresponds to CN(C)S(=O)(=O)c1cccc(-c2ccc(Cn3cnn(CC(CN)=C(F)F)c3=O)s2)c1 [Example 103, trifluoroacetate] ? 4200

Which measured IC50 value corresponds to CS(=O)(=O)c1cccc(-c2ccc(Cn3cnn(CC(CN)=C(F)F)c3=O)s2)c1 [Example 102, Trifluoroacetate] ? 5400

Which measured IC50 value corresponds to Cn1cc(C#Cc2ccc(Cn3cnn(CC(CN)=C(F)F)c3=O)s2)cn1 [Example 171, Trifluoroacetate] ? 50000

###

Molecular target: recombinant human VAP-1 (Homo sapiens)
Construct: purchased R&D systems
Sequence (Q16853 1-763): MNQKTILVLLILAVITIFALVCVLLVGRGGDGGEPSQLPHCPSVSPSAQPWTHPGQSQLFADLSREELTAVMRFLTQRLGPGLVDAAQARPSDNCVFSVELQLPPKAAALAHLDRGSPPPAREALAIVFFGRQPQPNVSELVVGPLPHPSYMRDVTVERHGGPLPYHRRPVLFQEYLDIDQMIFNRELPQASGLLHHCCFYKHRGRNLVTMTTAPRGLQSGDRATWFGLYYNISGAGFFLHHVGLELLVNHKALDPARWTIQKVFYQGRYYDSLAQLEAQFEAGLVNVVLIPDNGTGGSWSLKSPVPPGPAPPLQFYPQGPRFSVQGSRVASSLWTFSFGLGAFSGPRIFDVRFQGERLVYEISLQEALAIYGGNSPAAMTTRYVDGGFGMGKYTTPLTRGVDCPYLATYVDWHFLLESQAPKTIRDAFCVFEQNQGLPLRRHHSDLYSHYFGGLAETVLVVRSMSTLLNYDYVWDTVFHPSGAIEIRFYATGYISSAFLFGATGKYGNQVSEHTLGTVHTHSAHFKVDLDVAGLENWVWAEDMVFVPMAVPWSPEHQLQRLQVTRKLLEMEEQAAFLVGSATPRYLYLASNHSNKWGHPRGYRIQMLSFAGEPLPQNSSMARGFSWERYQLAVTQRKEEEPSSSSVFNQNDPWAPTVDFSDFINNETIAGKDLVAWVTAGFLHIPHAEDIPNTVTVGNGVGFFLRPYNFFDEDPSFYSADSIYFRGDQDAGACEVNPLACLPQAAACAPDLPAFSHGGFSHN
Assay: Activity evaluation on recombinant human VAP-1 (Amplex Red/HRP-coupled hydrogen peroxide assay, benzylamine substrate)
Assay type: biochemical
Conditions: recombinant human VAP-1; 30 min preincubation at 37° C.; 1 mM benzylamine; read-out: Inhibitory Activity (IC50, nM) human VAP-1
Counter-ions that a name gives are not always drawn.
Task for the reader: assign each of the following molecules its reported IC50.
In your response, the unit should come after the numeric value.

Which measured IC50 value corresponds to NCC(Cn1ncn(Cc2ccc(-c3ccc4cn[nH]c4c3)s2)c1=O)=C(F)F [Example 127, Trifluoroacetate] ? 0.6 nM

Which measured IC50 value corresponds to NCC(Cn1ncn(Cc2ccc(/C=C/c3cnc4c(c3)NC(=O)CO4)s2)c1=O)=C(F)F [Example 161, Trifluoroacetate] ? 0.2 nM

Which measured IC50 value corresponds to NCC(Cn1ncn(Cc2ccc(-c3cc(F)c4c(c3)CC(=O)N4)s2)c1=O)=C(F)F [Example 130, Trifluoroacetate] ? 0.7 nM
